Test system: Brain
PROTOCOL_NOTES: Drug uptake in ICR mouse brain at 370 kBq/100 ul, iv at 10 mins by gamma-counting analysis
Format: ADME, organism-based
STUDY_CONDITIONS: in vivo

| RECORD_SMILES | UNIT_TAG | Drug uptake |
| --- | --- | --- |
| CNc1ccc(-c2nc3ccc(OCC[18F])cc3s2)cn1 | % ID/g | 4.54 |
| CNc1ccc(-c2nc3ccc(OCCOCCOCC[18F])cc3s2)cn1 | % ID/g | 1.63 |
| CNc1ccc(-c2nc3cc(OCCOCCOCC[18F])ccc3o2)cn1 | % ID/g | 2.05 |
| CN(C)c1ccc(-c2nc3cc(OCCOCCOCC[18F])ccc3o2)cn1 | % ID/g | 1.97 |
| CN(C)c1ccc(-c2nc3cc(OCC[18F])ccc3o2)cn1 | % ID/g | 3.41 |
| CNc1ccc(-c2nc3cc(OCC[18F])ccc3o2)cn1 | % ID/g | 2.24 |
| CN(C)c1ccc(-c2nc3ccc(OCCOCCOCC[18F])cc3s2)cn1 | % ID/g | 2.64 |

* * *

Below, each entry is listed with its recorded Drug uptake.
System: Lung
PROTOCOL_NOTES: Drug uptake in ICR mouse lung at 370 kBq/100 ul, iv at 60 mins by gamma-counting analysis
Format: ADME, organism-based
STUDY_CONDITIONS: in vivo, 1 h
READOUT_LABEL: Drug uptake (% ID/g)

| RECORD_SMILES | RECORDED_RESULT |
| --- | --- |
| CNc1ccc(-c2nc3cc(OCC[18F])ccc3o2)cn1 | 2.57 |
| CNc1ccc(-c2nc3ccc(OCC[18F])cc3s2)cn1 | 2.72 |
| CN(C)c1ccc(-c2nc3ccc(OCCOCCOCC[18F])cc3s2)cn1 | 2.33 |
| CN(C)c1ccc(-c2nc3cc(OCCOCCOCC[18F])ccc3o2)cn1 | 1.87 |
| CN(C)c1ccc(-c2nc3cc(OCC[18F])ccc3o2)cn1 | 1.79 |
| CNc1ccc(-c2nc3ccc(OCCOCCOCC[18F])cc3s2)cn1 | 1.93 |
| CNc1ccc(-c2nc3cc(OCCOCCOCC[18F])ccc3o2)cn1 | 2.34 |

* * *

Test system: Heart
PROTOCOL_NOTES: Drug uptake in ICR mouse heart at 370 kBq/100 ul, iv at 2 mins by gamma-counting analysis
Type: ADME, organism-based
STUDY_CONDITIONS: in vivo
Param label: returns Yes when Drug uptake < 5 % ID/g, returns No otherwise, including exact equality.

| RECORD_SMILES | CLASS_LABEL |
| --- | --- |
| CN(C)c1ccc(-c2nc3cc(OCC[18F])ccc3o2)cn1 | No |
| CN(C)c1ccc(-c2nc3ccc(OCCOCCOCC[18F])cc3s2)cn1 | Yes |
| CN(C)c1ccc(-c2nc3cc(OCCOCCOCC[18F])ccc3o2)cn1 | No |
| CNc1ccc(-c2nc3ccc(OCC[18F])cc3s2)cn1 | No |
| CNc1ccc(-c2nc3cc(OCC[18F])ccc3o2)cn1 | Yes |
| CNc1ccc(-c2nc3cc(OCCOCCOCC[18F])ccc3o2)cn1 | No |
| CNc1ccc(-c2nc3ccc(OCCOCCOCC[18F])cc3s2)cn1 | Yes |
